- methodNotes: Cmax in Sprague-Dawley rat at 2 mg/kg, po
- Format: ADME, organism-based
- Parameters: dose 2 mg/kg, route oral
- measurementParameters: in vivo
recordedEndpoint: Cmax

Cmax in this record for CC1=Nc2ccc(Cl)cc2S(=O)(=O)N1 [DIAZOXIDE] : 1450 ng/mL

----------
- methodNotes: Tmax in Sprague-Dawley rat at 2.48 mg/kg, po or 1.08 mg/kg, iv
- Format: ADME, organism-based
- measurementParameters: in vivo
recordedEndpoint: Tmax (h)
Field: numeric (h). Do not append units.

Note to self: Tmax recorded for CC1(NC2=NS(=O)(=O)c3sc(Br)cc3N2)CC1 was 1.5
